# SYSTEM UNDER TEST: human adenosine transporter (Homo sapiens, UniProt Q99808)
# Construct: homogenates of U-937 cell culture (American Tissue Culture Compository), expressing the human (es) transporter; endogenous in cells; host or cells: U-937 (human) cell membrane homogenates
# Sequence (Q99808 1-456): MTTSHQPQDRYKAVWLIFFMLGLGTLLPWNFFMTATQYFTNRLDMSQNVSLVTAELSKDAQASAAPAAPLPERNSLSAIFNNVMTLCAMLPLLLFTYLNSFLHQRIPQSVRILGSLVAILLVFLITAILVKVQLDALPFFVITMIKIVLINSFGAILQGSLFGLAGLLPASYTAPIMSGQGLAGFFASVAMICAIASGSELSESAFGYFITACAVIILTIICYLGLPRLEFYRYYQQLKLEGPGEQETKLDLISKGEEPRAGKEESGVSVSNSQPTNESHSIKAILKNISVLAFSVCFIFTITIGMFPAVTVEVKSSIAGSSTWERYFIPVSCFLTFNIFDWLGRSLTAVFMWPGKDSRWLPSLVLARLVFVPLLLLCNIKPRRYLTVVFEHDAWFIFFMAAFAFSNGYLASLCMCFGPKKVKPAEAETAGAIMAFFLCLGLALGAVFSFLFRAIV
# PROCEDURE TEXT: Displacement of [3H]NBTI binding in U-937 cell homogenates
# MEASUREMENT SETUP: log-logit analysis of competition binding data; mean ± SEM
Exercise: state measured Hill slope for each of the compounds provided.

Query block: Value lookup for Hill slope; key = O=C(C=Cc1ccc(O)c(O)c1)OC1CC2(O)CC(OC2=O)C1OC(=O)C=Cc1ccc(O)c(O)c1 (stereo not shown) [3,4-dicaffeoyl-1,5-quinide]
Result block: 1.00 ± 0.03

Query block: Value lookup for Hill slope; key = COc1cc(C=CC(=O)OC2CC3(O)CC(OC3=O)C2OC(=O)C=Cc2ccc(O)c(OC)c2)ccc1O (stereo not shown) [3,4-diferuloyl-1,5-quinide]
Result block: 0.94 ± 0.02

Query block: Value lookup for Hill slope; key = O=C(C=Cc1ccc(O)cc1)OC1CC2(O)CC(OC2=O)C1OC(=O)C=Cc1ccc(O)cc1 (stereo not shown) [3,4-dicoumaroyl-1,5-quinide]
Result block: 1.22 ± 0.11

Query block: Value lookup for Hill slope; key = O=C(C=Cc1ccc(Cl)cc1)OC1CC2(O)CC(OC2=O)C1OC(=O)C=Cc1ccc(Cl)cc1 (stereo not shown) [3,4-di(4-chlorocinnamoyl)-1,5-quinide]
Result block: 1.12 ± 0.00

====

# SYSTEM UNDER TEST: human (es) transporter (Homo sapiens, UniProt Q99808)
# Construct: homogenates of U-937 cell culture (American Tissue Culture Compository), expressing the human (es) transporter; endogenous in cells
# Sequence (Q99808 1-456): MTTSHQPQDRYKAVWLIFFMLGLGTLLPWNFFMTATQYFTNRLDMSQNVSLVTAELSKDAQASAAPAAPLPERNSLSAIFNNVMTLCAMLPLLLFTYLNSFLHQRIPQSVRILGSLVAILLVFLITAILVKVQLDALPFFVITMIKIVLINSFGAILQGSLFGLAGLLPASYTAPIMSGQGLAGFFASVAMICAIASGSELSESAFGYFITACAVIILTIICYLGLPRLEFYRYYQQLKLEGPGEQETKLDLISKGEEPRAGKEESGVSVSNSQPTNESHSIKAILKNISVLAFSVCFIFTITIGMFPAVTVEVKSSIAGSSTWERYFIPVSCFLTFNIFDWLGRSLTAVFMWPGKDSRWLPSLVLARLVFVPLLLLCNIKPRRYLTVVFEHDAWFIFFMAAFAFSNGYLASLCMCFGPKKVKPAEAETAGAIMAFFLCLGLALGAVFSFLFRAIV
# PROCEDURE TEXT: Inhibition of [3H]adenosine transport in homogenates of U-937 cell culture
# MEASUREMENT SETUP: 10 μM [3H]adenosine; U-937 cell homogenates; HEPES buffer, 37° C., 30 min; read-out: inhibitory constant Ki, transport of [3H]adenosine
PARAMETER MEASURED: Ki (nM)
Write it as a number; the unit nM goes unstated.

Query block: Value lookup for Ki; key = COc1cc(C=CC(=O)OC2CC3(O)CC(OC3=O)C2OC(=O)C=Cc2ccc(O)c(OC)c2)ccc1O (stereo not shown) [3,4-diferuloyl-1,5-quinide]
Result block: 1200
